Assay: Metabolic Stability Assay
Settings: male, Sprague-Dawley, rat, microsomes

| MOLECULE | half-life at 0.5 µM (min) |
| --- | --- |
| COc1ccc2c(c1)[nH]c1c(C)nccc12 [Harmine, harmine, reference compound] | 18 |

====

Recorded inhibition at 5 µM values for a group of molecules are listed next.
Biological target: Dyrk1A (Homo sapiens, UniProt Q13627)
Construct: encoding the catalytic domain of human Dyrk1A; thrombin cleavage site (N); made in house; host or cells: Escherichia coli BL21(DE3) with pRARE
Test: Dyrk1A kinase assay (32P-ATP, Woodtide)
Assay type: biochemical
Settings: at 5 µM; read-out: percentage of inhibition Dyrk1A

| SMILES INPUT | inhibition at 5 µM |
| --- | --- |
| Cn1cnc2cc(-c3csc(-c4cccnc4)c3)cnc21 | 37% |
| c1cncc(-c2csc(-c3cncnc3)c2)c1 | 85% |
| c1ccc2c(-c3csc(-c4cncnc4)c3)cncc2c1 | 9% |
| c1cncc(-c2cc(-c3cscn3)cs2)c1 | 31% |
| c1cncc(-c2csc(-c3cnco3)c2)c1 | 84% |
| c1cc2cc(-c3csc(-c4cnco4)c3)ccc2[nH]1 | 18% |
| c1cncc(-c2csc(-c3cncs3)c2)c1 | 97% |
| CCOc1cncc(-c2csc(-c3cccnc3)c2)c1 | 45% |
| CSc1ncc(-c2csc(-c3cncnc3)c2)cn1 | 8% |
| Cc1cc(-c2csc(-c3cccnc3)c2)ccn1 | 23% |
| c1ncc(-c2csc(-c3cncnc3)c2)cn1 | 2% |
| Cn1cncc1-c1csc(-c2cccnc2)c1 | 44% |
| c1cncc(-c2cc(-c3ccncc3)cs2)c1 | 10% |
| c1ncc(-c2csc(-c3cnco3)c2)cn1 | 25% |
| Cc1cc(O)cc(-c2csc(-c3cccc(O)c3)c2)c1 | 10% |
| [O-][n+]1cccc(-c2csc(-c3cccnc3)c2)c1 | 4% |
| c1ccc2c(-c3csc(-c4cnco4)c3)cncc2c1 | 20% |
| Clc1cncc(-c2csc(-c3cncnc3)c2)c1 | 1% |
| Clc1cncc(-c2csc(-c3cnco3)c2)c1 | 0% |
| CSc1ncc(-c2csc(-c3cnco3)c2)cn1 | 7% |

====

Target: CaMK1 (Homo sapiens)
Construct: purchased Life Technologies (Invitrogen SelectScreen); Dyrk1A, Dyrk2 and CK2α in-house or gifts
Sequence (Q14012 whole entry): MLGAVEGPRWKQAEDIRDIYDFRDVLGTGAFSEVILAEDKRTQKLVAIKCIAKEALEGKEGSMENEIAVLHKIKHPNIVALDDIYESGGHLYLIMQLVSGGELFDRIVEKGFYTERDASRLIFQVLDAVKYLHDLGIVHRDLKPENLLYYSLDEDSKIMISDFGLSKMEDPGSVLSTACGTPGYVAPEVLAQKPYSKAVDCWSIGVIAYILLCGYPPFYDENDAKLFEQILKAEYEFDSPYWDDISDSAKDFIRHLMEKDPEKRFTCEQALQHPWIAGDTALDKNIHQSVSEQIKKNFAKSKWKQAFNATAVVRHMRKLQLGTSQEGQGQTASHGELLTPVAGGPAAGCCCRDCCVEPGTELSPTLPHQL
Experiment: Selectivity panel CaMK1
Assay type: biochemical
Details: 5 µM inhibitor

| COMPOUND | RESULT UNITS | inhibition at 5 µM |
| --- | --- | --- |
| c1cncc(-c2cc(-c3cncs3)cs2)c1 [Compound 29] | % | 8 |
| c1cncc(-c2csc(-c3cncs3)c2)c1 [Compound 48] | % | 5 |
| c1cncc(-c2csc(-c3cncnc3)c2)c1 [Compound 41] | % | 0 |
| Cn1cc(-c2csc(-c3cccnc3)c2)cn1 [Compound 30] | % | 17 |
| c1cncc(-c2csc(-c3cnco3)c2)c1 [Compound 33] | % | 12 |

====

Recorded inhibition at 5 µM values for a group of compounds are listed next.
Target: PKCβ (Homo sapiens)
Construct: purchased Life Technologies (Invitrogen SelectScreen); Dyrk1A, Dyrk2 and CK2α in-house or gifts
Sequence (P05771 whole entry): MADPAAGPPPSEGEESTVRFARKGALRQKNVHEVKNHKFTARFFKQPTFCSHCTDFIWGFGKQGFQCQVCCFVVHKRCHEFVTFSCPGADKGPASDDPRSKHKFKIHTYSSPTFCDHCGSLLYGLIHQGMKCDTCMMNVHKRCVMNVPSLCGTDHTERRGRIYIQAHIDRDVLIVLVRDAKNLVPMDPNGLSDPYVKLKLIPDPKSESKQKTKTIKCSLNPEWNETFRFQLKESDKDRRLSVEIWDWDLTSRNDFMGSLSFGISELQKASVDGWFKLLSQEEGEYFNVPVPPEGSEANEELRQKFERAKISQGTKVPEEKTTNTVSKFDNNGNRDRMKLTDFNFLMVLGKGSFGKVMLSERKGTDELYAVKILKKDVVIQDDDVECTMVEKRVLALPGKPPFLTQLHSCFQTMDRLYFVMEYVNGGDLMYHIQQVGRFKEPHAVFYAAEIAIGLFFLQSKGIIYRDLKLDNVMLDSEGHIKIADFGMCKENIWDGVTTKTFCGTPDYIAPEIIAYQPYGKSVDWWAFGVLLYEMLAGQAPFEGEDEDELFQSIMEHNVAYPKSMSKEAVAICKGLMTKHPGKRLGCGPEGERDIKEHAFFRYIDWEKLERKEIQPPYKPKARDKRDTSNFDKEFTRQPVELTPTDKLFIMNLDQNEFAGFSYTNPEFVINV
Assay: Selectivity panel PKCβ
Format: biochemical
Conditions: 5 µM inhibitor

| SMILES INPUT | RESULT UNITS | inhibition at 5 µM |
| --- | --- | --- |
| c1cncc(-c2csc(-c3cnco3)c2)c1 | % | -18 |
| c1cncc(-c2csc(-c3cncnc3)c2)c1 | % | -7 |
| c1cncc(-c2csc(-c3cncs3)c2)c1 | % | 1 |
| c1cncc(-c2cc(-c3cncs3)cs2)c1 | % | -7 |
| Cn1cc(-c2csc(-c3cccnc3)c2)cn1 | % | -8 |

Source of measurements: paper PMC3968014
